Data credit: patent US20260274933A1

Listed next: entries and their corresponding Kd.
Target: T1, human VEGF165 (R&D) (human, UniProt P15692-4 27-191)
T1 construct: Antigen of the ForteBio assay
T1 sequence (P15692 other isoform, or with tags, fused parts or gaps limits assumed): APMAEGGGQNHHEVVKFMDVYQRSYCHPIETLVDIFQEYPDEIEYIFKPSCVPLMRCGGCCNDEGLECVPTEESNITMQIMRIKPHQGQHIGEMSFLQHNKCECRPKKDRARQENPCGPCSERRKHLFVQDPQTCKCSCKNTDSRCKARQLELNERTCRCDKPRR
Assay: BLI (ForteBio), bivalent binding
State just the number; it will be interpreted in pM.

Below are worked cases with known answers.
LA46E11.8 (VEGFA VHH) (VHH, Humanized anti-VEGF A VHH; also called humanized LA46E11) VHH: EVQLLESGGGLVQPGGSLRLSCAASGSIFSINAMGWHRQAPGKQRELVATMIGGSSTFYAESVQGRFTISRDNSKNTVYLQMNSLRAEDTAVYYCYADVTGRSGTSIWNKRDDYWGQGTQVTVSS	788
LA46E11 (VEGFA VHH) (VHH, Alpaca anti-VEGF A VHH; also called LA46E11 supernatant) VHH: QVQLEESGGGLVQPGGSLRLSCVASGSIFSINAMGWHRQAPGSQRELVATMIGGSSTFYADSVNGRFTISRDNAKNTVYLQMNSLKLEDTAVYYCYADVTGRSGTSIWNKRDDYWGQGTLVTVSS	1110
LA42F8.5 (VHH, also called humanized LA42F8) VHH: EVQLLESGGGLVQPGGSLRLSCAASGFNLDYYPIGWFRQAPGKGLEGVSCISSVGSTNYADSVKGRFTISRDNSKNTVYLQMNSLRAEDTAVYYCAADPLCSALILPPPFLSWGQGTQVTVSS	200

--- query ---
Ask: Could you tell me which Kd is on file for LA42F8 (VEGFA VHH) (VHH, Alpaca anti-VEGF A VHH; also called LA42F8 supernatant) VHH: QLQLVESGGGLVQPGGSLRLSCAASGFNLDYYPIGWFRQAPGKEREGVSCISSVGSTNYADSVKGRFTISRDNAKNTVYLQMNSLKPEDTAVYYCAADPLCSALILPPPFLSWGQGTQVTVSS ?
Result: 843
